Parameter: Ki. Scope: all listed entries.
- TARGET OF ASSAY: human M2 receptor (Homo sapiens (Human))
- Sequence (P08172 whole entry): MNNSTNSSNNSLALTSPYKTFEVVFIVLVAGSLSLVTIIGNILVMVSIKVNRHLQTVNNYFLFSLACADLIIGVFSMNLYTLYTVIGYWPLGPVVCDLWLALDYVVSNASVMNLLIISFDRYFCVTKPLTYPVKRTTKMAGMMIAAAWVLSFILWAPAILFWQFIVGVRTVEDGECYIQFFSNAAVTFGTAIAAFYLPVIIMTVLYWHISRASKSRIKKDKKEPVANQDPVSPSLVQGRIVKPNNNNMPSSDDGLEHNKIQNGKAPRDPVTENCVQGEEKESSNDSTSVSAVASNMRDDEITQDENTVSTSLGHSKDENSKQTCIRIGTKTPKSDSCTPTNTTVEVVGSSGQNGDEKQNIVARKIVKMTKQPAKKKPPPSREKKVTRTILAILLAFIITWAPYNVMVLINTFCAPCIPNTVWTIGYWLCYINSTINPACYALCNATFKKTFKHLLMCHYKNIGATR
- TEST NAME: Radioligand (tritiated N-methylscopolamine) binding assay, M2
- CONDITION NOTES: CHO cell membranes expressing human M2; 1.5 nM tritiated N-methylscopolamine; 90 min, 37° C.; read-out: Ki against M2 receptor (Table 21, M2)

Reference set (10 entries):
Look up Ki with human M2 receptor (Homo sapiens (Human)) for this compound: N#Cc1cnc(N2CC3CCC(C2)N3C(=O)NCCC2CCN(Cc3ccccc3)CC2)nc1 [8-48]
< 10 nM

Entry O=C(NCCC1CCN(Cc2ccccc2)CC1)N1CCN(c2cnc(C(F)(F)F)cn2)CC1 [22-25] please
10 to 100 nM

Entry C[C@@H]1CN(c2ncc(C(F)(F)F)cn2)CCN1C(=O)NCCC1CCN(Cc2cccc(C#N)c2)CC1 [6-40] please
10 to 100 nM

Entry Cc1ccc(N2CCN(C(=O)NCCC3CCN(Cc4ccccc4)CC3)[C@H](C)C2)cc1F [4-13] please
100 to 1000 nM

Entry C[C@@H]1CN(c2ncc(F)cc2F)C[C@H](C)N1C(=O)NCCC1CCN(Cc2ccccc2)CC1 [22-5] please
10 to 100 nM

Entry Cc1c(C(=O)NCCC2CCN(Cc3ccccc3)CC2)cnc2cc(-c3cc(F)cc(F)c3)nn12 [18-5] please
100 to 1000 nM

Entry C[C@@H]1CN(c2ncc(C#N)cn2)C[C@H](C)N1C(=O)NCCC1CCN(Cc2ccccc2)CC1 [5-20] please
100 to 1000 nM

Entry C[C@@H]1CN(c2ccc(OC(F)(F)F)cn2)CCN1C(=O)NCCC1CCN(Cc2ccccc2)CC1 [3-13] please
100 to 1000 nM

Entry N#Cc1cc(N2CCC(C(=O)NCCC3CCN(Cc4ccccc4)CC3)CC2)ccc1F [9-73] please
100 to 1000 nM

Entry C[C@@H]1CN(c2ccc(F)c(C(F)F)c2)CCN1C(=O)NCCC1CCN(Cc2ccccc2)CC1 [7-9] please
100 to 1000 nM

New cases:
Look up Ki with human M2 receptor (Homo sapiens (Human)) for this compound: C[C@@H]1CN(c2ncc(C#N)cn2)C[C@H](C)N1C(=O)NCCC1CCN(Cc2ccc(F)cc2)CC1 [6-48]
10 to 100 nM

Entry C[C@@H]1CN(c2ccc(C#N)c(F)c2)CCN1C(=O)NCCC1CCN(Cc2ccccc2)CC1 [22-15] please
10 to 100 nM

Numbers sourced from patent US11033539B2.
